test system: lyase from M. costata; test: Relative degrading rates of the lyase from M. costata towards various substrates; assay type: biochemical, Morchella costata; conditions: substrate 10 mg/ml
Measurement Type: relative degrading rate (maltotetraose = 100%)
Your answer is read as %, so omit the unit and give the number.

Give lyase from M. costata relative degrading rate (maltotetraose = 100%) for OC[C@H]1O[C@H](O[C@H]2[C@H](O)[C@@H](O)[C@@H](O[C@H]3[C@H](O)[C@@H](O)[C@@H](O[C@H]4[C@H](O)[C@@H](O)[C@@H](O[C@H]5[C@H](O)[C@@H](O)[C@@H](O[C@H]6[C@H](O)[C@@H](O)C(O)O[C@@H]6CO)O[C@@H]5CO)O[C@@H]4CO)O[C@@H]3CO)O[C@@H]2CO)[C@H](O)[C@@H](O)[C@@H]1O (some centres unmarked) [Maltohexaose, maltohexaose]
95.9

Give lyase from M. costata relative degrading rate (maltotetraose = 100%) for OC[C@H]1O[C@H](O[C@H]2[C@H](O)[C@@H](O)[C@@H](O[C@H]3[C@H](O)[C@@H](O)[C@@H](O[C@H]4[C@H](O)[C@@H](O)[C@@H](O[C@H]5[C@H](O)[C@@H](O)C(O)O[C@@H]5CO)O[C@@H]4CO)O[C@@H]3CO)O[C@@H]2CO)[C@H](O)[C@@H](O)[C@@H]1O (some centres unmarked) [Maltopentaose, maltopentaose]
99.7

====

tested on: lyase from M. costata; experiment: Relative degrading rates of the lyase from M. costata towards various substrates; type: biochemical, Morchella costata; conditions: substrate 4 mg/ml
Measurement Type: relative degrading rate (maltotetraose = 100%)
Give a bare numeral; the unit % is implied.

Param item = OCC1OC(OC2C(CO)OC(OC3C(CO)OC(O)C(O)C3O)C(O)C2O)C(O)C(O)C1O (stereo not shown) ; retrieve measured relative degrading rate (maltotetraose = 100%).
58.6

====

test system: lyase from M. vulgaris; assay: Relative degrading rates of the lyase from M. vulgaris towards various substrates; type: biochemical, Morchella vulgaris; settings: all substrates 10 mg ml^−1
Think of 70% as a floor: if Activity (%) (maltotetraose = 100%) stands on it or above, it is fulfilled; beneath it, not fulfilled.

For this compound, is measured Activity (%) (maltotetraose = 100%) 70% or higher? OC[C@H]1O[C@H](O[C@H]2[C@H](O)[C@@H](O)[C@@H](O[C@H]3[C@H](O)[C@@H](O)[C@@H](O[C@H]4[C@H](O)[C@@H](O)C(O)O[C@@H]4CO)O[C@@H]3CO)O[C@@H]2CO)[C@H](O)[C@@H](O)[C@@H]1O (stereo partly drawn)
fulfilled

Identify whether the reported Activity (%) (maltotetraose = 100%) of the following compound is 70% or greater: OC[C@H]1O[C@H](O[C@H]2[C@H](O)[C@@H](O)C(O)O[C@@H]2CO)[C@H](O)[C@@H](O)[C@@H]1O (mixture of isomers)
not fulfilled

Kindly determine if Activity (%) (maltotetraose = 100%) recorded for OC[C@H]1O[C@H](O[C@H]2[C@H](O)[C@@H](O)[C@@H](O[C@H]3[C@H](O)[C@@H](O)[C@@H](O[C@H]4[C@H](O)[C@@H](O)[C@@H](O[C@H]5[C@H](O)[C@@H](O)[C@@H](O[C@H]6[C@H](O)[C@@H](O)[C@@H](O[C@H]7[C@H](O)[C@@H](O)C(O)O[C@@H]7CO)O[C@@H]6CO)O[C@@H]5CO)O[C@@H]4CO)O[C@@H]3CO)O[C@@H]2CO)[C@H](O)[C@@H](O)[C@@H]1O (stereo partly drawn) is above or exactly 70%.
fulfilled

Has OC[C@H]1O[C@H](O[C@H]2[C@H](O)[C@@H](O)[C@@H](O[C@H]3[C@H](O)[C@@H](O)[C@@H](O[C@H]4[C@H](O)[C@@H](O)[C@@H](O[C@H]5[C@H](O)[C@@H](O)[C@@H](O[C@H]6[C@H](O)[C@@H](O)C(O)O[C@@H]6CO)O[C@@H]5CO)O[C@@H]4CO)O[C@@H]3CO)O[C@@H]2CO)[C@H](O)[C@@H](O)[C@@H]1O (stereo partly drawn) a recorded Activity (%) (maltotetraose = 100%) greater than or equal to 70%?
fulfilled

Kindly determine if Activity (%) (maltotetraose = 100%) recorded for OC[C@H]1O[C@H](O[C@H]2[C@H](O)[C@@H](O)[C@@H](O[C@H]3[C@H](O)[C@@H](O)[C@@H](O[C@H]4[C@H](O)[C@@H](O)[C@@H](O[C@H]5[C@H](O)[C@@H](O)C(O)O[C@@H]5CO)O[C@@H]4CO)O[C@@H]3CO)O[C@@H]2CO)[C@H](O)[C@@H](O)[C@@H]1O (stereo partly drawn) is above or exactly 70%.
fulfilled

In plain terms: is recorded Activity (%) (maltotetraose = 100%) at least 70% for OCC1OC(OC2C(CO)OC(OC3C(CO)OC(O)C(O)C3O)C(O)C2O)C(O)C(O)C1O (stereo not drawn) ?
not fulfilled

====

tested on: α-1,4-glucan lyase; assay: Activity of the lyase towards maltosaccharides (summary); type: biochemical
Measurement Type: lyase activity towards maltosaccharide

>>> reported("OC[C@H]1O[C@H](O[C@H]2[C@H](O)[C@@H](O)[C@@H](O[C@H]3[C@H](O)[C@@H](O)[C@@H](O[C@H]4[C@H](O)[C@@H](O)[C@@H](O[C@H]5[C@H](O)[C@@H](O)[C@@H](O[C@H]6[C@H](O)[C@@H](O)[C@@H](O[C@H]7[C@H](O)[C@@H](O)C(O)O[C@@H]7CO)O[C@@H]6CO)O[C@@H]5CO)O[C@@H]4CO)O[C@@H]3CO)O[C@@H]2CO)[C@H](O)[C@@H](O)[C@@H]1O (some centres unmarked) [Maltoheptaose, maltoheptaose]")
"lower activity"
>>> reported("OCC1OC(OC2C(CO)OC(OC3C(CO)OC(O)C(O)C3O)C(O)C2O)C(O)C(O)C1O (centres unmarked) [Maltotriose, maltotriose]")
"lower activity"
>>> reported("OC[C@H]1O[C@H](O[C@H]2[C@H](O)[C@@H](O)[C@@H](O[C@H]3[C@H](O)[C@@H](O)[C@@H](O[C@H]4[C@H](O)[C@@H](O)[C@@H](O[C@H]5[C@H](O)[C@@H](O)C(O)O[C@@H]5CO)O[C@@H]4CO)O[C@@H]3CO)O[C@@H]2CO)[C@H](O)[C@@H](O)[C@@H]1O (some centres unmarked) [Maltopentaose, maltopentaose]")
"highest activity"
>>> reported("OC[C@H]1O[C@H](O[C@H]2[C@H](O)[C@@H](O)[C@@H](O[C@H]3[C@H](O)[C@@H](O)[C@@H](O[C@H]4[C@H](O)[C@@H](O)C(O)O[C@@H]4CO)O[C@@H]3CO)O[C@@H]2CO)[C@H](O)[C@@H](O)[C@@H]1O (some centres unmarked) [Maltotetraose, maltotetraose]")
"highest activity"
